Endpoint: IC50. System: Receptor-type tyrosine-protein kinase FLT3 (Homo sapiens, UniProt P36888, ITD). Items follow.
Sequence (P36888 whole entry, looked up, change not shown): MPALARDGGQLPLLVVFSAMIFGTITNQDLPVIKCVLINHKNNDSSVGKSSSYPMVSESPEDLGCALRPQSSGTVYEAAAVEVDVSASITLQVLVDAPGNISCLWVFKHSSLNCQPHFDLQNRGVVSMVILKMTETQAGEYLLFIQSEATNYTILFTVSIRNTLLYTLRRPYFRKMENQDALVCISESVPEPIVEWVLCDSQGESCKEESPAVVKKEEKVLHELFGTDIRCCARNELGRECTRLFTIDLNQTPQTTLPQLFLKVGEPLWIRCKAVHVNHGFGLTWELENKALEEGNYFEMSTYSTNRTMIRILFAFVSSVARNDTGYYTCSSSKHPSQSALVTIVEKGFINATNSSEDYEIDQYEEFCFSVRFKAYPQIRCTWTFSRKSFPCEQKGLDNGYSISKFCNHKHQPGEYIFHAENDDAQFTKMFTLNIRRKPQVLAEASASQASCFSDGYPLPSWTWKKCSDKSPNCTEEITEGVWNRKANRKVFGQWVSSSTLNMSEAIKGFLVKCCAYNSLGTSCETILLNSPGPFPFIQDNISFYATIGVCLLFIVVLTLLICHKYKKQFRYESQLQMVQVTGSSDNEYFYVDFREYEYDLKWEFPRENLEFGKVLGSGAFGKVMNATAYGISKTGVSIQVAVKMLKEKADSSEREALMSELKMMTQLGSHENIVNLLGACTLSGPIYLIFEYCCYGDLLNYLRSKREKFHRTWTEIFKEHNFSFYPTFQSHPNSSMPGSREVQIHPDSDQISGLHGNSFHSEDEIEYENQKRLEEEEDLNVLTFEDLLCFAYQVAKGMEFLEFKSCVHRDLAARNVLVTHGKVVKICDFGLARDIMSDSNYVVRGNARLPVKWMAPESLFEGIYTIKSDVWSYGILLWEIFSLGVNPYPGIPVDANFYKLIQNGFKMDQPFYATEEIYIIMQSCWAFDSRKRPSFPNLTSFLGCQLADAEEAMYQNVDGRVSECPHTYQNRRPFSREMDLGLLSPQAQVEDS

I'd like to know its IC50. The molecule in question is `FC(F)(F)c1n[nH]cc1-c1nc2c(Br)cc3[nH]ncc3c2c2c1CCCC2`
> 20000 nM

Field entry: `Fc1cc(F)cc(-c2cc(-c3c[nH]nc3C(F)(F)F)nc3ccc4[nH]ncc4c23)c1`
> 20000 nM

And for `Cc1n[nH]c2cc(F)c3nc(-c4c[nH]nc4C(F)(F)F)c4c(c3c12)CCCC4` ?
1 nM

Further cases:
Suppose we examine the molecule CCc1cnn2c(NCc3ccc[n+]([O-])c3)cc(N3CCCC[C@H]3CCO)nc12 [DINACICLIB] ; what IC50 value has been reported?
> 2000 nM

Same for `Fc1cc2[nH]ncc2c2c3c(c(-c4cn[nH]c4)nc12)CCCC3`
43 nM

And `FC(F)(F)c1n[nH]cc1-c1nc2ccc3[nH]nnc3c2c2c1CCCC2` ?
408 nM

And the next one, `Cc1n[nH]c2ccc3nc(-c4c[nH]nc4C(F)(F)F)c4c(c3c12)CCCC4` ?
6 nM

What do you have for `Cc1n[nH]cc1-c1nc2c(F)cc3[nH]ncc3c2c2c1CCCC2` ?
7 nM

// query: FC(F)(F)c1n[nH]cc1-c1nc2ccc3[nH]ncc3c2c2c1CC(N1CCOCC1)CC2 (stereo not drawn)
16 nM

Then `FC(F)(F)c1n[nH]cc1-c1nc2ccc3sncc3c2c2c1CCCC2` ?
8490 nM

And what about the molecule `Fc1cc2[nH]ncc2c2c3c(c(-c4c[nH]nc4C(F)(F)F)nc12)CCCC3` ?
12 nM

Also `Cn1cc(-c2nc3ccc4[nH]ncc4c3c3c2CCCC3)c(C2CC2)n1` , if possible.
3660 nM

Now give it for `CC(C)c1nn(C)cc1-c1nc2ccc3[nH]ncc3c2c2c1CCCC2` too.
3840 nM

How about Fc1cc2[nH]ncc2c2c3c(c(-c4c[nH]nc4C(F)(F)F)nc12)C1CCC3C1 (stereo not drawn) ?
16 nM

Same for CN1CCN(C2CCc3c(c(-c4c[nH]nc4C(F)(F)F)nc4ccc5[nH]ncc5c34)C2)CC1 (stereo not drawn)
141 nM
